Target: T1, Spn1(148–293) (S. cerevisiae, UniProt Q06505 148-293)
T1 sequence (looked up): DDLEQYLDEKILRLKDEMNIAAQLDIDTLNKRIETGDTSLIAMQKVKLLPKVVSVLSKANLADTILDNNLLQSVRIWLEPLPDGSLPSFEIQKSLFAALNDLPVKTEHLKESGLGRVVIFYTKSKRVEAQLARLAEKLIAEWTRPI
Assay: ITC
pKd: −log10 of the molar value.

| binder | pKd |
| --- | --- |
| SDKIDEMYDIKGDGHDYDWALEIENEELEN (domain or fragment, S. cerevisiae, UniProt P23615 239-268, looked up) [Spt6(239–268)-F249K] | 4.96 |
